- Measured On: T1, hNPR1-mFc:hANP or hNPR1-hFc:hANP complex (human, UniProt P01160 124-151)
- T1 construct: also called human NPR1 complexed to ANP
- Assay Explanation: SPR, mAb captured, 37C
Please respond with reported pKd for every item in the list.
Give bare numbers, as −log10 of the molar value.

mAb22810 (antibody, human IgG4, V domains shown) VH: EVQLVESGGGLVKPGGSLRLSCVVSGFTFRIYTMNWVRQAPGKGLEWVASISSSSSFINYADSLKGRFTISRDNAQNSLYLQMNSLRAEDTAIYYCARAAGNDVLPGRMDVWGQGTSVTVSS VL: EIVLTQSPGTLSLSPGERATLSCRASQSVSSNYLAWYQQKPGQVPSLLIYGASSRATGIPDRFSGSGSGTDFTLTITRLEPEDFAVYYCQQYGISPWTFGQGTKVEIK : 7.12

Would you kindly look at the next entry?
Return reported pKd. Input binder: mAb25497 (antibody, human IgG4, V domains shown) VH: QVQLVQSGAEVKEPGASVKVSCKASGYTFTDYYIHWVRQAPGQGLEWMGWINLNSGGKNHAQKFQGRVTVTSDTSINTAYIELGRLRGDDTAVYYCSRGGGSHYYYYYHGMDVWGQGTTVTVSS VL: DIQMTQSPSSLSASVGDRITITCRASHSIDSYLNWYQQKPGKAPKLLIYPASTLQSGVPSRFSGSGSGTDFTLTISSLQPEDSAIYYCQQSYSTPLTFGGGTKVEIK
8.68

Just for reference, patent US20240309103A1 is where these values come from.
